# assayed.target: Neu5Ac(a2-3)Gal(b1-4)[Fuc(a1-3)]GlcNAc(b1-3)Gal
# experiment.summary: glycan array binding signal (z-score within array); higher = stronger binding
# condition.description: glycan notation: IUPAC condensed, linker removed
This excerpt belongs to a sample that is enriched for the strongest signals.

[
  {
    "binder": "Ficolin B (Rattus norvegicus), P57756 (protein) MVLGSAALFVLSLCVTELTLHAADTCPEVKVLDLEGSNKLTILQGCPGLPGALGPKGEAGAKGDRGESGLPGHPGKAGPTGPKGDRGEKGVRGEKGDTGPSQSCATGPRTCKELLTRGYFLTGWYTIYLPDCRPLTVLCDMDTDGGGWTVFQRRIDGTVDFFRDWTSYKQGFGSQLGEFWLGNDNIHALTTQGTNELRVDLADFDGNHDFAKYSSFQIQGEAEKYKLILGNFLGGGAGDSLTSQNNMLFSTKDQDNDQGSSNCAVRYHGAWWYSDCHTSNLNGLYLRGLHKSYANGVNWKSWKGYNYSYKVSEMKVRLI",
    "glycan array binding signal (z-score)": 0.01
  },
  {
    "binder": "FGFR2-Fc (protein) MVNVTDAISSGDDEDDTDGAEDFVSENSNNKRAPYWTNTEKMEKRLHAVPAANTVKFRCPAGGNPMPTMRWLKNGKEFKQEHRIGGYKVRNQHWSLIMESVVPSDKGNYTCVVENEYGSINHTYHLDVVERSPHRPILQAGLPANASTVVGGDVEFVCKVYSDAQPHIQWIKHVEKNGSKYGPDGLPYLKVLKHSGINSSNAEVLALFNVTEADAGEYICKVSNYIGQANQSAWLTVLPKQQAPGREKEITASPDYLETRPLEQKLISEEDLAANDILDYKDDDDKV",
    "glycan array binding signal (z-score)": 1.09
  }
]
